Just for reference, patent US6410581B1 is where these values come from.

assay-method-text: log p, n-octanol/water partition coefficient by reverse phase HPLC (H2O/CH3CN)
Assay type: physicochemical
condition-context: n-octanol/water, pH 2.3
result-type: chromatographic logP

- CCOC(=O)Oc1ccc(-c2ccccc2)cc1C: 4.04
- CCOC(=O)Oc1ccc(-c2ccccc2)cc1Cl: 4.16
- CCCc1cc(-c2ccccc2)ccc1OC(=O)OCC: 4.76
- CCc1cc(-c2ccccc2)ccc1OC(C)=O: 3.92
- CCCc1cc(-c2ccccc2)ccc1OC(C)=O: 4.32
- CCCc1cc(-c2ccc(C(CCl)NC(=O)c3c(F)cccc3F)cc2)ccc1OC(C)=O (stereo not drawn): 3.92

###

assay-method-text: log p, n-octanol/water partition coefficient by reverse phase HPLC (H2O/CH3CN)
Format: physicochemical
condition-context: pH 7.5
result-type: log p

Consider the compound CC(C)Oc1c(Cl)cc(-c2ccc(C3COC(c4c(F)cccc4F)=N3)cc2)cc1Cl (centres unmarked) [Example I-342] and give its measured log p. 5.65

###

assay-method-text: log p, n-octanol/water partition coefficient by reverse phase HPLC (H2O/CH3CN)
Format: physicochemical
condition-context: pH 7.5
result-type: log p

* C=CCc1cc(-c2ccc(C3COC(c4ccccc4Cl)=N3)cc2)ccc1OC(C)C (centres unmarked) | log p: 5.93
* CCC(C)Oc1ccc(-c2ccc(C3COC(c4c(F)cccc4Cl)=N3)cc2)cc1C (centres unmarked) | log p: 5.93
